System: Clostridium sporogenes DSM 1664
Assay: fold change of Tryptamine concentration vs plate DMSO controls (fold change (ratio)); higher = more amine produced, active = hit call of the paper (significant change in both replicates, either direction);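 for the amine columns active = adjusted P below 0.05 in both replicates with a change the same way and a mean fold change under 0.8 or over 1.25; inactive = the rest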
Conditions: incubation time: 27 h, anaerobic, 37 °C
Structures can show the parent of a compound that is named as a salt.
Classes used: active, inactive

INSERT INTO results (compound, classification) VALUES
  ('CN(C)CCC=C1c2ccccc2C=Cc2ccccc21 [Cyclobenzaprine hydrochloride] (20 µM)', 'inactive'),
  ('COc1nc(N)nc2c1ncn2[C@@H]1O[C@H](CO)[C@@H](O)[C@@H]1O [Nelarabine] (20 µM)', 'inactive'),
  ('CC(C)(C)NC(=O)[C@H]1CC[C@H]2[C@@H]3CC[C@H]4NC(=O)C=C[C@]4(C)[C@H]3CC[C@]12C [Finasteride] (20 µM)', 'inactive'),
  ('Oc1c(Cl)cc(Cl)c2cccnc12 [Chloroxine] (20 µM)', 'inactive'),
  ('CN(C)CCC(c1ccccc1)c1ccccn1 (centres undefined) [Pheniramine maleate] (20 µM)', 'inactive'),
  ('CC(C)(C)NC[C@@H](O)COc1cccc2c1CCCC2=O [(+) Levobunolol hydrochloride] (20 µM)', 'inactive'),
  ('C=C1C[C@@]23CC[C@H]4[C@@](C)(CCC[C@@]4(C)C(=O)O[C@@H]4O[C@H](CO)[C@@H](O)[C@H](O)[C@H]4O)[C@@H]2CC[C@]1(O[C@@H]1O[C@H](CO)[C@@H](O)[C@H](O)[C@H]1O)C3 [Rubusoside] (50 µM)', 'inactive'),
  ('CCN(CC)CC#CCOC(=O)C(O)(c1ccccc1)C1CCCCC1 (centres undefined) [Oxybutynin chloride] (20 µM)', 'inactive'),
  ('COc1cc(NS(=O)(=O)c2ccc(N)cc2)nc(OC)n1 [Sulfadimethoxine] (20 µM)', 'inactive'),
  ('OC[C@H]1O[C@@H](O[C@H]2[C@H](O)[C@@H](O)[C@H](O)O[C@@H]2CO)[C@H](O)[C@@H](O)[C@H]1O [Lactose] (50 µM)', 'inactive'),
  ('C/C=C(/C(=C/C)c1ccc(O)cc1)c1ccc(O)cc1 [Dienestrol] (20 µM)', 'inactive'),
  ('CC1=NN(c2ccccc2)C(=O)C1 [Edaravone] (20 µM)', 'inactive'),
  ('CCOC(=O)C1=C(C)NC(C)=C(C(=O)OCC)C1c1ccccc1/C=C/C(=O)OC(C)(C)C [Lacidipine] (20 µM)', 'inactive'),
  ('Nc1cc(-c2ccncc2)c[nH]c1=O [Amrinone] (20 µM)', 'inactive'),
  ('C[C@H](N[C@@H](CCc1ccccc1)C(=O)O)C(=O)N1CCC[C@H]1C(=O)O [Enalaprilat dihydrate] (20 µM)', 'inactive'),
  ('C#C[C@]1(O)CC[C@H]2[C@@H]3CCC4=CC(=O)CC[C@@H]4[C@H]3CC[C@@]21C [Norethindrone] (20 µM)', 'inactive'),
  ('Cc1ncc(C[n+]2csc(CCO)c2C)c(N)n1 [Thiamine hydrochloride] (20 µM)', 'inactive'),
  ('CCC(C)(C)c1ccc(CC(C)CN2C[C@@H](C)O[C@@H](C)C2)cc1 (some centres undefined) [Amorolfine hydrochloride] (20 µM)', 'inactive'),
  ('CCC(=O)O[C@@H](O[P@](=O)(CCCCc1ccccc1)CC(=O)N1C[C@H](C2CCCCC2)C[C@H]1C(=O)O)C(C)C [Fosinopril] (20 µM)', 'inactive'),
  ('CN[C@H](CC(C)C)C(=O)N[C@H]1C(=O)N[C@@H](CC(N)=O)C(=O)N[C@H]2C(=O)N[C@H]3C(=O)N[C@H](C(=O)N[C@H](C(=O)O)c4cc(O)cc(O)c4-c4cc3ccc4O)[C@H](O)c3ccc(c(Cl)c3)Oc3cc2cc(c3O[C@@H]2O[C@H](CO)[C@@H](O)[C@H](O)[C@H]2O[C@H]2C[C@](C)(N)[C@H](O)[C@H](C)O2)Oc2ccc(cc2Cl)[C@H]1O [Vancomycin hydrochloride] (20 µM)', 'active'),
  ('OC[C@H]1OC(O)[C@H](O)[C@H](O)[C@@H]1O (stereo partly drawn) [D-allose] (50 µM)', 'inactive'),
  ('CCN1/C(=C/C=C/C=C/c2sc3ccccc3[n+]2CC)Sc2ccccc21 [Dithiazanine iodide] (20 µM)', 'inactive'),
  ('CC(=O)O[C@]1(C(C)=O)CC[C@H]2[C@@H]3C=C(Cl)C4=CC(=O)CC[C@]4(C)[C@H]3CC[C@@]21C [Chlormadinone acetate] (20 µM)', 'inactive'),
  ('CC(C)NCC(O)c1ccc(O)c(O)c1 (single isomer, unassigned; (+)) [(+) Isoproterenol-(+)-bitartrate salt] (20 µM)', 'inactive'),
  ('N=C(N)NC(=N)NCCc1ccccc1 [Phenformin hydrochloride] (20 µM)', 'inactive'),
  ('CO/N=C(\C(=O)N[C@@H]1C(=O)N2C(C(=O)OC(C)OC(C)=O)=C(COC(N)=O)CS[C@H]12)c1ccco1 (some centres undefined) [Cefuroxime axetil] (20 µM)', 'inactive'),
  ('[S] (20 µM)', 'inactive'),
  ('CCOc1cc(N)c(Cl)cc1C(=O)NCC1CN(Cc2ccc(F)cc2)CCO1 (centres undefined) [Mosapride] (20 µM)', 'inactive'),
  ('CCCCOc1ccc(CC(=O)NO)cc1 [Bufexamac] (20 µM)', 'inactive');

###

Tested on: Klebsiella aerogenes DSM 30053
Assay: fold change of Histamine concentration vs plate DMSO controls (fold change (ratio)); higher = more amine produced, active = hit call of the paper (significant change in both replicates, either direction)
Conditions: incubation time: 27 h, anaerobic, 37 °C
Counter-ions that a name gives are not always drawn.
Tag: class 1 if measured fold change of Histamine concentration is not below 1, class 0 if it is.

INSERT INTO results (molecule, subject_of_test, classification) VALUES
  ('OC(CCCN1CCCCC1)(c1ccccc1)c1ccccc1 [Diphenidol hydrochloride] (20 µM)', 'Klebsiella aerogenes DSM 30053', 'class 1'),
  ('NC[C@H]1CC[C@H](C(=O)O)CC1 [Tranexamic acid] (20 µM)', 'Klebsiella aerogenes DSM 30053', 'class 0'),
  ('O=C(CO)[C@@H](O)[C@@H](O)[C@H](O)CO [D-Tagatose] (50 µM)', 'Klebsiella aerogenes DSM 30053', 'class 0'),
  ('C[C@@H](O)[C@H]1C(=O)N2C(C(=O)O)=C(SCCNC=N)C[C@H]12 [Imipenem] (20 µM)', 'Klebsiella aerogenes DSM 30053', 'class 0'),
  ('C[C@H]1O[C@@H](O[C@H]2[C@@H](O)C[C@H](O[C@H]3[C@@H](O)C[C@H](O[C@H]4CC[C@@]5(C)[C@H](CC[C@@H]6[C@@H]5C[C@@H](O)[C@]5(C)[C@@H](C7=CC(=O)OC7)CC[C@]65O)C4)O[C@@H]3C)O[C@@H]2C)C[C@H](O)[C@@H]1O [Digoxin] (20 µM)', 'Klebsiella aerogenes DSM 30053', 'class 1'),
  ('Nc1ncnc2c1ncn2[C@@H]1O[C@H](COP(=O)(O)O)[C@@H](O)[C@H]1O [5''-Adenylic acid] (50 µM)', 'Klebsiella aerogenes DSM 30053', 'class 0'),
  ('CN(C)CCC=C1c2ccccc2C=Cc2ccccc21 [Cyclobenzaprine hydrochloride] (20 µM)', 'Klebsiella aerogenes DSM 30053', 'class 1'),
  ('CCN(CC)C(=O)C1(c2ccccc2)CC1CN (centres undefined) [Milnacipran hydrochloride] (20 µM)', 'Klebsiella aerogenes DSM 30053', 'class 0'),
  ('N[C@@H](Cc1cc(I)c(Oc2cc(I)c(O)c(I)c2)c(I)c1)C(=O)O [(L) Thyroxine] (20 µM)', 'Klebsiella aerogenes DSM 30053', 'class 1'),
  ('COc1nc(C)nc(Cl)c1NC1=NCCN1 [Moxonidine] (20 µM)', 'Klebsiella aerogenes DSM 30053', 'class 1'),
  ('OC[C@H]1O[C@H](O[C@H]2O[C@H](CO)[C@@H](O)[C@H](O)[C@H]2O)[C@H](O)[C@@H](O)[C@@H]1O [Trehalose dihydrate] (20 µM)', 'Klebsiella aerogenes DSM 30053', 'class 0'),
  ('CC(C)Cc1ccc([C@H](C)C(=O)O)cc1 [(S,+) Ibuprofen] (20 µM)', 'Klebsiella aerogenes DSM 30053', 'class 0'),
  ('C[C@H](Cc1cc2c(c(C(N)=O)c1)N(CCCO)CC2)NCCOc1ccccc1OCC(F)(F)F [Silodosin] (20 µM)', 'Klebsiella aerogenes DSM 30053', 'class 0'),
  ('Cn1c(=O)c2c(ncn2CC(O)CO)n(C)c1=O (centres undefined) [Diprophylline] (20 µM)', 'Klebsiella aerogenes DSM 30053', 'class 1'),
  ('CN[C@@H]1[C@H](O[C@H]2[C@H](O[C@H]3[C@H](O)[C@@H](O)[C@H](NC(=N)N)[C@@H](O)[C@@H]3NC(=N)N)O[C@@H](C)[C@]2(O)CO)O[C@@H](CO)[C@H](O)[C@H]1O [Dihydrostreptomycin sulfate] (20 µM)', 'Klebsiella aerogenes DSM 30053', 'class 0'),
  ('CNC[C@H](O)[C@@H](O)[C@H](O)[C@H](O)CO [Meglumine] (20 µM)', 'Klebsiella aerogenes DSM 30053', 'class 0'),
  ('C#C[C@]1(O)CC[C@H]2[C@@H]3CCc4cc(OC)ccc4[C@H]3CC[C@@]21C [Mestranol] (20 µM)', 'Klebsiella aerogenes DSM 30053', 'class 0'),
  ('O=C(CCCN1CCC(O)(c2ccc(Cl)cc2)CC1)c1ccc(F)cc1 [Haloperidol] (20 µM)', 'Klebsiella aerogenes DSM 30053', 'class 1'),
  ('CN(C)CCc1c[nH]c2ccc(Cn3cncn3)cc12 [Rizatriptan benzoate] (20 µM)', 'Klebsiella aerogenes DSM 30053', 'class 0');
